Catalogue of cell viability values
Test system: SEM cells
Test: cell viability relative to DMSO control; higher = less cytotoxic
Conditions: RPMI 5 mM glucose + 10% FBS; 48 h; 0.0211 µM
readout label: cell viability (%)

OCCn1cc(-c2cnc3nnn(Cc4ccc5ncccc5c4)c3n2)cn1: 133
CCOc1ccc(Cc2cc([C@@H]3O[C@H](CO)[C@@H](O)[C@H](O)[C@H]3O)ccc2Cl)cc1: 89.5
NC(=O)Nc1cc(-c2cccc(F)c2)sc1C(=O)N[C@H]1CCCNC1: 45.2
C[C@H]1COC/2=C1/C(=O)C(=O)C3=C4CCCC(C)(C)C4=CC=C23: 128
CC/1=C(/N2[C@H](SC1)[C@H](NC(=O)C(N)C3=CC=CC=C3)C2=O)C(O)=O (some centres undefined): 132
COc1cc(N2CCC(N(C)C)CC2)ccc1Nc1ncc(Cl)c(Nc2ccccc2P(C)(C)=O)n1: 109
CN1CCN(CCCN2c3ccccc3Sc3ccc(C(F)(F)F)cc32)CC1: 93.9
CC(COc1ccccc1)N(CCCl)Cc1ccccc1 (centres undefined): 120
c1ccc(-c2oc3ncnc(NC[C@@H]4CCCO4)c3c2-c2ccccc2)cc1: 103

====

Catalogue of cell viability values
Tested on: NOMO1
Test: cell viability relative to DMSO control; higher = less cytotoxic
Conditions: RPMI 5 mM glucose + 10% dialyzed FBS; 48 h; 0.00234 µM
readout label: cell viability (%)

O.O.CCN1CCN(C(=O)N[C@H](C(=O)N[C@H]2[C@@H]3SC\C(=C(/N3C2=O)C(O)=O)CSC4=NN=N[N]4C)C5=CC=C(O)C=C5)C(=O)C1=O: 92.9
Cc1onc(-c2ccccc2)c1C(=O)N[C@@H]1C(=O)N2[C@@H]1SC(C)(C)[C@@H]2C(=O)[O-].[Na+]: 109
COC1=CC=C2CN(C)CC[C@@]34\C=C/[C@H](O)C[C@@H]3OC1=C24: 121
C[C@@H](O)[C@@H]1NC(=O)[C@H](CCCCN)NC(=O)[C@@H](Cc2c[nH]c3ccccc23)NC(=O)[C@H](Cc2ccccc2)NC(=O)[C@@H](NC(=O)[C@H](N)Cc2ccccc2)CSSC[C@@H](C(=O)N[C@H](CO)[C@@H](C)O)NC1=O: 89
OC[C@H]1O[C@@H](Oc2cc(O)cc(/C=C/c3ccc(O)cc3)c2)[C@H](O)[C@@H](O)[C@@H]1O: 92.4
O=C(Nc1cccnn1)N1CCC(=Cc2cccc(Oc3ccc(C(F)(F)F)cn3)c2)CC1: 85.3
COc1cc(/C=C/C(=O)O)ccc1O: 91

====

Catalogue of cell viability values
System: SEM cells
Test: cell viability relative to DMSO control; higher = less cytotoxic
Settings: RPMI 5 mM glucose + 10% dialyzed FBS; 48 h; 0.00702 µM
readout label: cell viability (%)

CCOC(=O)Nc1ccc(NCc2ccc(F)cc2)nc1N: 120
COc1cc(/C=C/C(=O)O)ccc1O: 68.6
CC/1=C(/N2[C@H](SC1)[C@H](NC(=O)C(N)C3=CC=CC=C3)C2=O)C(O)=O (stereo not given in full): 137
COc1cccc2c1[C@]13CCN(CC4CC4)[C@H](C2)[C@]1(OC)CCC(=O)C3: 18.8
COc1cc(C(=O)NS(=O)(=O)c2ccccc2C)ccc1Cc1cn(C)c2ccc(NC(=O)OC3CCCC3)cc12: 64.2

====

System: NOMO1
Experiment: cell viability relative to DMSO control; higher = less cytotoxic
Settings: HPLM + 10% dialyzed FBS; 48 h; 0.19 µM
Catalogue of cell viability values
readout label: cell viability

CC/1=C(\O)C(=O)\C=C2/C1=C/C=C3\[C@@]2(C)CC[C@@]4(C)[C@@H]5C[C@@](C)(CC[C@]5(C)CC[C@]34C)C(O)=O: 115%
OC[C@H]1O[C@@H]2[C@@H](OC\3=N\C(=N)\C=C/[N@@]23)[C@@H]1O: 129%
CNC(=O)[C@H](CC/1=C/N=C\2/C=C\C\C=C12)NC(=O)[C@H](CC(C)C)CC(=O)NO: 124%
CNC(=O)Nc1ccc(-c2nc(N3CC4CCC(C3)O4)c3cnn(C4CCC5(CC4)OCCO5)c3n2)cc1: 75.9%
O=[S+]([O-])(c1cccc2cnccc12)N1CCCNCC1: 147%
OCCn1cc(-c2cnc3nnn(Cc4ccc5ncccc5c4)c3n2)cn1: 118%
CO/N=C(/C(=O)N[C@@H]1C(=O)N2C(C(=O)O)=C(CSC(=O)c3ccco3)CS[C@H]12)c1csc(N)n1: 103%

====

Test system: SEM cells
Test: cell viability relative to DMSO control; higher = less cytotoxic
Settings: RPMI 5 mM glucose + 10% FBS; 48 h; 0.0211 µM
readout label: cell viability (%)

Cc1cccc(/C=N/Nc2cc(N3CCOCC3)nc(OCCc3ccccn3)n2)c1: 109
CNC(=O)Nc1ccc(-c2nc(N3CC4CCC(C3)O4)c3cnn(C4CCC5(CC4)OCCO5)c3n2)cc1: 51
C=CCc1ccc(O)c(-c2ccc(O)c(CC=C)c2)c1: 85.1
NC/1=N/C(=O)N(/C=N1)[C@@H]2O[C@H](CO)[C@@H](O)[C@H]2O: 102
CC(C)Cc1ccc(C(C)C(=O)O)cc1 (stereo not given): 91.3
COC(=O)\C1=C\CCN(C)C1: 109
CCOC1=CC=CC=C1N\2C(=O)C3=C(C=CC=C3)\N=C2C(C)N4CCN(CC4)C(=O)COC5=CC=C(Cl)C=C5 (stereo not given): 101
NC(=O)OCC(COC(N)=O)c1ccccc1: 119
O=c1[nH]c(=O)n(C2CCCO2)cc1F (stereo not given): 126
CC(C)(C)[C@H](NC(=O)c1ccc(N)c(Cl)c1)C(=O)N1CCC[C@H]1C(=O)N[C@H](C#N)CC(=O)O: 118

====

Test system: NOMO1
Assay: cell viability relative to DMSO control; higher = less cytotoxic
Settings: RPMI 5 mM glucose + 10% dialyzed FBS; 48 h; 46.1 µM
readout label: cell viability (%)

COc1cccc2c1CCCC2CCCN1CCN(C2CCCCC2)CC1 (configuration not stated): 58
C[S+](=O)([O-])c1ccc(Oc2cc(F)cc(C#N)c2)c2c1[C@H](O)C(F)(F)C2: 114
CCOC(=O)/C=C/[C@H](C[C@@H]1CCNC1=O)NC(=O)[C@@H](CC(=O)[C@@H](NC(=O)c1cc(C)on1)C(C)C)Cc1ccc(F)cc1: 125
C=CCc1ccc(O)c(-c2ccc(O)c(CC=C)c2)c1: 53.8
CN1CCN(C(=O)O[C@H]2c3nccnc3C(=O)N2c2ccc(Cl)cn2)CC1: 78.5
CC(C)(O)/C=C\C(=O)[C@](C)(O)[C@H]1[C@H](O)C[C@]2(C)[C@@H]3CC=C4[C@@H](C=C(O)C(=O)C4(C)C)[C@]3(C)C(=O)C[C@@]12C: 12.2
CO/N=C(/C(=O)N[C@@H]1C(=O)N2C(C(=O)O)=C(CSC(=O)c3ccco3)CS[C@H]12)c1csc(N)n1: 58.5
COc1ncc(-c2ccc3c(Nc4cc(Oc5cc(F)cc(F)c5)cc(C(=O)O)c4)c([S+](=O)([O-])NC4CC4)cnc3c2)c(OC)n1: 75.6
CC[C@]1(O)C[C@@H]2CN(CCc3c([nH]c4ccccc34)[C@@](C(=O)OC)(c3cc4c(cc3OC)N(C)[C@H]3[C@@](O)(C(N)=O)[C@H](O)[C@]5(CC)C=CCN6CC[C@]43[C@@H]65)C2)C1: 20.7
N#C[C@H](O[C@@H]1O[C@H](CO[C@@H]2O[C@H](CO)[C@@H](O)[C@H](O)[C@H]2O)[C@@H](O)[C@H](O)[C@H]1O)c1ccccc1: 9.62
C[C@H]1COC/2=C1/C(=O)C(=O)C3=C4CCCC(C)(C)C4=CC=C23: 151
CC(C)(O)c1cc2nc(-c3cnc(N)nc3)nc(N3CCOCC3)c2s1: 51.8
C[C@@H](O)[C@@H]1NC(=O)[C@H](CCCCN)NC(=O)[C@@H](Cc2c[nH]c3ccccc23)NC(=O)[C@H](Cc2ccccc2)NC(=O)[C@@H](NC(=O)[C@H](N)Cc2ccccc2)CSSC[C@@H](C(=O)N[C@H](CO)[C@@H](C)O)NC1=O: 112
Cn1cc(C[C@@H](N)C(=O)O)c2ccccc21: 76.7
N#C/C(C(=O)c1ccc(Cl)cc1Cl)=C1/NC(=O)c2ccc(Cl)cc2N1: 105
CC/1=C(/N2[C@H](SC1)[C@H](NC(=O)C(N)C3=CC=CC=C3)C2=O)C(O)=O (some centres not stated): 130
CCOC(=O)\C1=C\[C@@H](OC(CC)CC)[C@H](NC(C)=O)[C@@H](N)C1: 87.1
CNC(=O)Nc1ccc(-c2nc(N3CC4CCC(C3)O4)c3cnn(C4CCC5(CC4)OCCO5)c3n2)cc1: 52.4
COc1cc(O)c2c(c1)C(=O)c1cc(C)cc(O)c1C2=O: 24.3
Nc1nc(Cl)nc2c1ncn2[C@@H]1O[C@H](CO)[C@@H](O)[C@@H]1F: 17.1
C#CCN[C@@H]1CCc2ccccc21.CS(=O)(=O)O: 81.8
N=C1N[C@H]2[C@H](CS[C@H]2CCCCC(=O)O)N1: 136
